Hello, the source for this data is patent EP4745124A1, in case you need it.

- tested system: SARS-CoV-2 PL^Pro (Severe acute respiratory syndrome coronavirus 2, UniProt P0DTD1)
- Construct: SARS-CoV-2 PL^Pro catalytic domain (746-1060); made in house
- method description: biochemical
- run parameters: SARS-CoV-2 PLPro catalytic domain (746-1060), 10 minutes pre-incubation; read-out: PLpro IC50
pIC50: −log10 of the molar value.
attribute measured: pIC50

Query string: Please give the measured pIC50 for this compound: Cc1ccc(N2CC(N3CCC(O)C3)C2)cc1C(=O)NC1(c2ccc3c4c(cccc24)C(=O)N3C)CC1 (stereo not shown)
Result string: > 7.40

Query string: Please give the measured pIC50 for this compound: "Cc1ccc(-n2ccc(N(C)C)c2)cc1C(=O)NC1(c2ccc3c4c(cccc24)C(=O)N3C)CC1"
Result string: > 7.40

Query string: Please give the measured pIC50 for this compound: Cc1ccc(N2CCN(C)CC2)cc1C(=O)NC1(c2ccc3c4c(cccc24)C(=O)N3)CC1 [Compound P2]
Result string: 7.00 to 7.40

Query string: Please give the measured pIC50 for this compound: "Cc1ccc(N2CC(N3CCN(C)C(=O)C3)C2)cc1C(=O)NC1(c2ccc3c4c(cccc24)C(=O)N3C)CC1"
Result string: 6.00 to 7.00

Query string: Please give the measured pIC50 for this compound: "CCN1CCN(c2ccc(C)c(C(=O)NC3(c4ccc5c6c(cccc46)C(=O)N5C)CC3)c2)C[C@@H]1C"
Result string: > 7.40

Query string: Please give the measured pIC50 for this compound: "Cc1ccc(N2CCC(N(C)C)CC2)cc1C(=O)NC1(c2ccc3c4c(cccc24)C(=O)N3C)CC1"
Result string: 6.00 to 7.00

Query string: Please give the measured pIC50 for this compound: "Cc1ccc(N2CC(N3CCC(F)(F)CC3)C2)cc1C(=O)NC1(c2ccc3c4c(cccc24)C(=O)N3C)CC1"
Result string: 7.00 to 7.40
